- systemName: human CB2 (Homo sapiens, UniProt P34972, Q63R)
- Construct: HA (N); 3TCS (N); expressed in transfected cells; host or cells: HEK-293S cells, transient transfection (PEI max)
- Sequence (P34972 whole entry Q63R): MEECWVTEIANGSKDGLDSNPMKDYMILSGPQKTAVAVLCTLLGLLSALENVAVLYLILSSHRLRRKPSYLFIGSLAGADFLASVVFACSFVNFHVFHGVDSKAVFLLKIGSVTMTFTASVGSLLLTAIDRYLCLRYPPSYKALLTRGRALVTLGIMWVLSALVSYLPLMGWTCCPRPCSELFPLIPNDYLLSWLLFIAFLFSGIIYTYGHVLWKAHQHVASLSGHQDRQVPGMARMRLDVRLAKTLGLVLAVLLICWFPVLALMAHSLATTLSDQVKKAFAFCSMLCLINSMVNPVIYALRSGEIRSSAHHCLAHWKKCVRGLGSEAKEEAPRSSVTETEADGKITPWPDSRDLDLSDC
- testMethodNotes: Real-time BRET CAMYEL cAMP biosensor, forskolin-stimulated HEK-293S cells transfected with human CB2
- Assay type: cell-based
- recordedConditions: cAMP assay, calculated from mean EC50 at 2.5 min; Figure S1
// reported 2.5 min EC75 concentration (log[compound] M) for each item listed
Kindly provide the numeric value in log M only, without the unit symbol.

>  <compound>
CCc1c(C)cc(C(=O)NC2(C(=O)NCCOCCOCCOCCO)CCCCC2)c(=O)n1Cc1ccc(F)cc1

>  <unitText>
log M

>  <observedMeasurement>
-6.9

$$$$
>  <compound>
CCCCCCC(C)(C)c1ccc([C@@H]2C[C@H](O)CC[C@H]2CCCO)c(O)c1 [CP55,940, reference compound]

>  <unitText>
log M

>  <observedMeasurement>
-7.3

$$$$
>  <compound>
CCc1c(C)cc(C(=O)NC2(C(=O)NCCOCCOCCO)CCCCC2)c(=O)n1Cc1ccc(F)cc1

>  <unitText>
log M

>  <observedMeasurement>
-7.6

$$$$
>  <compound>
CCc1c(C)cc(C(=O)NC2(C(=O)O)CCCCC2)c(=O)n1Cc1ccc(F)cc1 [UOSS77, reference compound]

>  <unitText>
log M

>  <observedMeasurement>
-7.6

$$$$

Pending compound:
Give 2.5 min EC75 concentration (log[compound] M); test system human CB2 (Homo sapiens, UniProt P34972, Q63R); compound `O=C(N[C@H]1CC[C@@H](O)CC1)c1cc2cccnc2n(CCN2CCOCC2)c1=O`
-7.1

* * *

- systemName: human CB2 (Homo sapiens, UniProt P34972, Q63R)
- Construct: HA (N); 3TCS (N); expressed in transfected cells; host or cells: HEK-293S cells, transient transfection (PEI max)
- testMethodNotes: Competition radioligand binding assay ([3H]-CP55,940), hCB2 membranes
propertyLabel: Ki
Remember to follow the number with its unit.

Please review the following examples before continuing.
>  <moleculeSmiles>
CCc1c(C)cc(C(=O)NC2(C(=O)NCCOCCOCCOCCO)CCCCC2)c(=O)n1Cc1ccc(F)cc1

>  <propertyLabel>
Ki

>  <observedMeasurement>
813 nM

$$$$
>  <moleculeSmiles>
CCc1c(C)cc(C(=O)NC2(C(=O)NCCOCCOCCO)CCCCC2)c(=O)n1Cc1ccc(F)cc1

>  <propertyLabel>
Ki

>  <observedMeasurement>
148 nM

$$$$

Now for another entry.
Give the reported value of Ki for this record: `O=C(N[C@H]1CC[C@@H](O)CC1)c1cc2cccnc2n(CCN2CCOCC2)c1=O`
724 nM

* * *

- systemName: human CB1 (Homo sapiens)
- Construct: pplss (N); 3HA (N); expressed in transfected cells
- Sequence (P21554 whole entry): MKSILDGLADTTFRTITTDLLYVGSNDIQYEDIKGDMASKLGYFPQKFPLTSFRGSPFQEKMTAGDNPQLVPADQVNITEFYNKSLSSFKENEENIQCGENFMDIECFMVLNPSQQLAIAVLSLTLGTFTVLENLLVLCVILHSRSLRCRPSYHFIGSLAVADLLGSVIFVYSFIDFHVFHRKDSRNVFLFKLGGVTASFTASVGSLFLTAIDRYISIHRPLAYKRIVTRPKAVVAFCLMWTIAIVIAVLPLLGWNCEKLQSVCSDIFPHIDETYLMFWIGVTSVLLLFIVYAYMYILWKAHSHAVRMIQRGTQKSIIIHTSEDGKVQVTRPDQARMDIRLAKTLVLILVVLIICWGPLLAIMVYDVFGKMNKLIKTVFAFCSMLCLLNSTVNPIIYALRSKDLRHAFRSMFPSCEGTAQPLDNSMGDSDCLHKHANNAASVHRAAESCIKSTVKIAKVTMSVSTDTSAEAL
- testMethodNotes: Competition radioligand binding assay ([3H]-CP55,940), hCB1 membranes
propertyLabel: Ki

Some compounds with recorded Ki:
>  <compound>
O=C(N[C@H]1CC[C@@H](O)CC1)c1cc2cccnc2n(CCN2CCOCC2)c1=O [UOMM18]

>  <observedMeasurement>
> 100 µM

$$$$
>  <compound>
CCc1c(C)cc(C(=O)NC2(C(=O)NCCOCCOCCO)CCCCC2)c(=O)n1Cc1ccc(F)cc1 [UOSS75]

>  <observedMeasurement>
~15.1 µM

$$$$

Now for a further compound.
State its Ki for this compound: CCc1c(C)cc(C(=O)NC2(C(=O)NCCOCCOCCOCCO)CCCCC2)c(=O)n1Cc1ccc(F)cc1 [UOSS76]
~29.5 µM
